test: clinical; settings: both, human, in vivo, po, 40 mg
QUANTITY_KIND: AUC(0-t) (ng·h/mL)
Express it in ng·h/mL; write the number only.

Fill in: AUC(0-t) of CC(C)COc1ccc(CNC(=O)N(Cc2ccc(F)cc2)C2CCN(C)CC2)cc1 is ___ 1220
